# reported pIC50; entries follow
# target or system: HIV reverse transcriptase (Human immunodeficiency virus type 1 group M subtype B, UniProt P04585)
pIC50: −log10 of the molar value.

- compound: "CSC[C@H]1C(=S)Nc2ccc(F)cc2N1C(=O)OC(C)C [Example 98]"
  pIC50: 7.44
- compound: "CCC[C@H]1C(=S)Nc2ccc(OC)cc2N1C(=O)OC(C)C [Example 100]"
  pIC50: 7.30
- compound: "CC[C@H]1C(=S)Nc2ccc(F)cc2N1C(=O)OCC(C)C [Example 140j]"
  pIC50: 7.32
- compound: "CCOC(=O)N1c2cc(F)ccc2NC(=O)[C@@H]1CC [Example 78]"
  pIC50: 6.52
- compound: "CC[C@H]1C(=S)Nc2ccc(F)cc2N1C(=O)OC [Example 140h]"
  pIC50: 7.53

---

# reported IC50; entries follow
# target or system: UniProtKB P04585
reported endpoint: IC50 (nM)

- compound: "CCCCOC(=O)N1c2cc(F)ccc2NC(=S)[C@@H]1CC [Example 140i]"
  measure unit: "nM"
  measured result: 70.9
- compound: "CC[C@H]1C(=S)Nc2ccc(O)cc2N1C(=O)OC(C)C [Example 140b]"
  measure unit: "nM"
  measured result: 238
- compound: "CCC(C)OC(=O)N1c2cc(OC)ccc2NC(=S)[C@@H]1CSC (stereo partly drawn) [Example 140f]"
  measure unit: "nM"
  measured result: 53.6
- compound: "CCC[C@H]1C(=S)Nc2ccccc2N1C(=O)OC(C)C"
  measure unit: "nM"
  measured result: 92.3
- compound: "C=C(C)OC(=O)N1c2cc(OC)ccc2NC(=O)[C@@H]1CSC"
  measure unit: "nM"
  measured result: 49.6
- compound: "CSC[C@H]1C(=S)Nc2ccc(Cl)cc2N1C(=O)OC(C)C"
  measure unit: "nM"
  measured result: 43.5
- compound: "CC[C@H]1C(=S)Nc2ccccc2N1C(=O)OC(C)C"
  measure unit: "nM"
  measured result: 39.5
- compound: "CCCCOC(=O)N1c2cc(F)ccc2NC(=O)[C@@H]1CC [Example 84l]"
  measure unit: "nM"
  measured result: 510

---

# target or system: HIV reverse transcriptase (Human immunodeficiency virus type 1 group M subtype B, UniProt P04585)
# reported IC50; entries follow
reported endpoint: IC50 (nM)

- compound: "CCC(C)COC(=O)N1c2cc(OC)ccc2NC(=S)[C@@H]1CSC (stereo partly shown)"
  reported endpoint: "IC50"
  measured result: 40.7
- compound: "COc1ccc2c(c1)N(C(=O)OC(C)C)[C@@H](CSC)C(=S)N2"
  reported endpoint: "IC50"
  measured result: 23.5
- compound: "C=C(C)OC(=O)N1c2cc(Cl)ccc2NC(=O)[C@@H]1CSC"
  reported endpoint: "IC50"
  measured result: 55.1
- compound: "CSC[C@H]1C(=S)Nc2ccccc2N1C(=O)OC(C)C"
  reported endpoint: "IC50"
  measured result: 16.1
- compound: "C=C(C)OC(=O)N1c2cc(F)ccc2NC(=O)[C@@H]1CC"
  reported endpoint: "IC50"
  measured result: 331
- compound: "C=CCOC(=O)N1c2cc(Cl)ccc2NC(=S)[C@@H]1CC"
  reported endpoint: "IC50"
  measured result: 22.5

---

# target or system: HIV reverse transcriptase (Human immunodeficiency virus type 1 group M subtype B, UniProt P04585)

- compound: "CC[C@H]1C(=O)Nc2ccc(F)cc2N1C(=O)OC(C)C"
  IC50 / nM: 71.4
- compound: "CC[C@H]1C(=S)Nc2ccc(Cl)cc2N1C(=O)OC(C)C"
  IC50 / nM: 12.8
- compound: "CCC(C)OC(=O)N1c2cc(F)ccc2NC(=O)[C@@H]1CC (stereo partly drawn) [Example 84j]"
  IC50 / nM: 296
- compound: "CSC[C@H]1C(=S)Nc2ccc(O)cc2N1C(=O)OC(C)C [Example 140a]"
  IC50 / nM: 285
- compound: "CCC[C@H]1C(=S)Nc2ccc(F)cc2N1C(=O)OC(C)C"
  IC50 / nM: 51.5
- compound: "C=C(C)OC(=O)N1c2cc(Cl)ccc2NC(=S)[C@@H]1CC"
  IC50 / nM: 19.3
- compound: "CCC(C)OC(=O)N1c2cc(OC)ccc2NC(=O)[C@@H]1CSC (stereo partly drawn) [Example 84g]"
  IC50 / nM: 349

---

Reported values: pIC50 for HIV reverse transcriptase (Human immunodeficiency virus type 1 group M subtype B), one per item.
pIC50: −log10 of the molar value.
reported endpoint: pIC50

- compound: "CC(C)OC(=O)N1c2cc(F)ccc2NC(=O)[C@@H]1C [Example 84i]"
  target or system: "HIV reverse transcriptase (Human immunodeficiency virus type 1 group M subtype B)"
  measured result: 6.19
- compound: "CCC(C)OC(=O)N1c2cc(F)ccc2NC(=S)[C@@H]1CC (stereo partly drawn) [Example 140k]"
  target or system: "HIV reverse transcriptase (Human immunodeficiency virus type 1 group M subtype B)"
  measured result: 7.29
- compound: "CC[C@H]1C(=S)Nc2ccc(OC)cc2N1C(=O)OC(C)C"
  target or system: "HIV reverse transcriptase (Human immunodeficiency virus type 1 group M subtype B)"
  measured result: 7.45
- compound: "C=C(C)OC(=O)N1c2cc(Cl)ccc2NC(=S)[C@@H]1CSC"
  target or system: "HIV reverse transcriptase (Human immunodeficiency virus type 1 group M subtype B)"
  measured result: 7.54
- compound: "CCOC(=O)N1c2cc(F)ccc2NC(=S)[C@@H]1CC"
  target or system: "HIV reverse transcriptase (Human immunodeficiency virus type 1 group M subtype B)"
  measured result: 7.97
- compound: "CCOc1ccc2c(c1)N(C(=O)OC(C)C)[C@@H](CSC)C(=S)N2"
  target or system: "HIV reverse transcriptase (Human immunodeficiency virus type 1 group M subtype B)"
  measured result: 7.65
- compound: "CSC[C@H]1C(=O)Nc2ccc(Cl)cc2N1C(=O)OC(C)C"
  target or system: "HIV reverse transcriptase (Human immunodeficiency virus type 1 group M subtype B)"
  measured result: 7.82

---

# target or system: HIV reverse transcriptase (Human immunodeficiency virus type 1 group M subtype B)
pIC50: −log10 of the molar value.
Answer not met if pIC50 is under 7, and met if it is 7 or more.

- compound: "CCCOC(=O)N1c2cc(Cl)ccc2NC(=O)[C@@H]1CSC"
  classification: "met"
- compound: "CC[C@H]1C(=O)Nc2ccc(Cl)cc2N1C(=O)OC(C)C"
  classification: "met"
- compound: "COc1ccc2c(c1)N(C(=O)OCC(C)C)[C@@H](CSC)C(=S)N2 [Example 140g]"
  classification: "met"
- compound: "C=CCOC(=O)N1c2cc(Cl)ccc2NC(=S)[C@@H]1C [Example 140c]"
  classification: "not met"

---

# target or system: HIV reverse transcriptase (Human immunodeficiency virus type 1 group M subtype B)
pIC50: −log10 of the molar value.
# reported pIC50; entries follow
reported endpoint: pIC50

- molecule: "COC[C@H]1C(=S)Nc2ccc(OC)cc2N1C(=O)OC(C)C"
  measured result: 6.97
- molecule: "C=C(C)OC(=O)N1c2cc(Cl)ccc2NC(=S)[C@@H]1C [Example 140d]"
  measured result: 7.04
- molecule: "COC[C@H]1C(=S)Nc2ccc(F)cc2N1C(=O)OC(C)C [Example 140l]"
  measured result: 7.15

FYI, the data here is from patent US5723461A.
